Subject Of Test: P2Y purinoceptor 14 (Homo sapiens)
Measurement Description: Antagonist activity at human P2Y14R expressed in human HEK293 cells assessed as inhibition of cAMP level at 100 nM incubated for 30 mins by cAMP-glo assay relative to control
Format: functional, cell-based
Condition Summary: filed as antagonist
Property Measured: inhibition (%)

Some solved entries appear below for comparison.
1. O=C(Cc1ccccc1Cl)Nc1cccc(-c2nc3ccccc3o2)c1 : 67.2
2. COc1ccccc1CC(=O)Nc1cccc(-c2nc3cc(Cl)ccc3o2)c1 : 81
3. O=C(Cc1ccc(C(F)(F)F)cc1)Nc1cccc(-c2nc3ccccc3o2)c1 : 83.6

[I] CCCCOc1ccc(CC(=O)Nc2cccc(-c3nc4ccccc4o3)c2)cc1
[II] O=C(Cc1ccc2c(c1)OCO2)Nc1cccc(-c2nc3cc(Cl)ccc3o2)c1
Select one: I or II . Criterion: greater recorded inhibition. The response must carry the label of the picked entry.
I

* * *

Subject Of Test: P2Y purinoceptor 14 (Homo sapiens) (UniProt Q15391)
Sequence (whole entry): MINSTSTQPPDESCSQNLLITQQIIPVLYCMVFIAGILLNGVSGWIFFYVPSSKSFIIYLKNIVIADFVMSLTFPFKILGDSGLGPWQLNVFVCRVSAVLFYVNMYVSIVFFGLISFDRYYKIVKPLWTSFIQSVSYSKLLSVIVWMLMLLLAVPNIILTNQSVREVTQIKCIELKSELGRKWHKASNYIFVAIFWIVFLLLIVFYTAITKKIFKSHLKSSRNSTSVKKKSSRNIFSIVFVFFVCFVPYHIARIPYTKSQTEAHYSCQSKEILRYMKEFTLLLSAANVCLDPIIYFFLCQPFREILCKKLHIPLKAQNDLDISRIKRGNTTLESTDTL
Measurement Description: Antagonist activity at human P2Y14R expressed in human HEK293 cells assessed as inhibition of cAMP level at 100 nM incubated for 30 mins by cAMP-glo assay relative to control
Type: functional, cell-based
Condition Summary: filed as antagonist
Property Measured: inhibition (%)

Some solved entries appear below for comparison.
1. Cc1ccc2oc(-c3cccc(NC(=O)Cc4cccc(Cl)c4)c3)nc2c1 : 44.1
2. Cc1ccc2oc(-c3cccc(NC(=O)Cc4cccc(C(F)(F)F)c4)c3)nc2c1 : 62.2
3. Cc1cccc(CC(=O)Nc2cccc(-c3nc4ccccc4o3)c2)c1 : 78.5

[I] Cc1ccc(CC(=O)Nc2cccc(-c3nc4cc(Cl)ccc4o3)c2)cc1
[II] O=C(Cc1ccc(Br)cc1)Nc1ccc(-c2cc3ccccc3o2)cc1
Quick one: lower inhibition, I or II ? The response must carry the label of the picked entry.
II
(II: 47%, I: 84.6%)

* * *

Subject Of Test: P2Y purinoceptor 14 (Homo sapiens, UniProt Q15391)
Measurement Description: Antagonist activity at human P2Y14R expressed in human HEK293 cells assessed as inhibition of cAMP level incubated for 30 mins by cAMP-glo assay
pIC50: −log10 of the molar value.
Property Measured: pIC50

Some solved entries appear below for comparison.
1. Cc1cccc(CC(=O)Nc2cc(C)cc(-c3nc4cc(Cl)ccc4o3)c2)c1 : 8.01
2. Cc1ccc(CC(=O)Nc2cccc(-c3nc4cc(C)ccc4o3)c2)cc1 : 7.73
3. COc1ccccc1CC(=O)Nc1cccc(-c2nc3cc(Cl)ccc3o2)c1 : 7.77
4. CCCCOc1ccc(CC(=O)Nc2cccc(-c3nc4ccccc4o3)c2)cc1 : 7.91
5. Cc1ccc(CC(=O)Nc2cccc(-c3nc4ccccc4o3)c2)cc1 : 8.06
6. O=C(Cc1ccc(OC(F)(F)F)cc1)Nc1cccc(-c2nc3cc(Cl)ccc3o2)c1 : 8.01
7. O=C(Cc1cccc(OC(F)(F)F)c1)Nc1cccc(-c2nc3ccccc3o2)c1 : 7.79
8. O=C(Cc1ccc(OC(F)(F)F)cc1)Nc1cccc(-c2nc3ccccc3o2)c1 : 8.32

[1] O=C(Cc1ccc(C(F)(F)F)cc1)Nc1cccc(-c2nc3cc(Cl)ccc3o2)c1
[2] O=C(Cc1ccc(C(F)(F)F)cc1)Nc1cccc(-c2nc3ccccc3o2)c1
[3] Cc1ccc2oc(-c3cccc(NC(=O)Cc4ccc(C(F)(F)F)cc4)c3)nc2c1
[4] COc1ccc(CC(=O)Nc2cccc(-c3nc4ccccc4o3)c2)cc1
[5] Cc1cccc(CC(=O)Nc2cccc(-c3nc4ccccc4o3)c2)c1
Could you please sort these 5 entries by pIC50 from high to low? Write out the labels following the order that was asked for.
4, 1, 2, 5, 3
(4: 8.70, 1: 8.21, 2: 7.94, 5: 7.66, 3: 7.45)
